Data origin: PubChem BioAssay (NCI)

tested on: HOP-92 NSCLC; test: NCI tumour cell line growth inhibition, 48 h
Endpoint: TGI

Examples with their reported TGI follow.
Compound: COC(=O)C1C(C(=O)OC)N(Cc2ccccc2)C(=O)N1Cc1ccccc1 (configuration not stated)
TGI: > 100 µM
--
Compound: COC(=O)C(/C(=N/NC(N)=O)C(=O)Nc1ccc(C)cc1)c1nc2ccc([N+](=O)[O-])cc2[nH]c1=O (configuration not stated)
TGI: > 100 µM
--
Compound: Cc1ccc(-c2c3c([nH]c(=O)c2C#N)-c2cc(F)ccc2OC3)cc1
TGI: > 100 µM
--
Compound: Nc1ccc2nc(-c3ccccn3)c(-c3ccccn3)nc2c1
TGI: > 100 µM
--
Compound: C[C@]12CC[C@H](O)CC1=CC[C@@H]1[C@@H]2CC[C@]2(C)C(c3cccnc3)=CC[C@@H]12
TGI: > 55.9 µM

Note to self: TGI recorded for COC(=O)CC(=O)C[P+](c1ccccc1)(c1ccccc1)c1ccccc1 was > 218 µM

Note to self: TGI recorded for O=C(O)CSc1nnc(COc2ccc(Cl)cc2)n1-c1ccccc1 was > 100 µM

Note to self: TGI recorded for Cc1cc2c(cc1C)[n+](=O)c(C(=O)CC(=O)C(=O)Nc1c(C(C)C)cccc1C(C)C)c(C)n2[O-] was > 100 µM

Note to self: TGI recorded for Cc1ccc(S(=O)(=O)C(CC(=O)N2CCCC2)C(=O)c2ccccc2)cc1 (configuration not stated) was > 100 µM

Note to self: TGI recorded for CCN1c2ccccc2-n2c(C)nnc2-c2c1n[nH]c2-c1ccccc1 was > 100 µM

Note to self: TGI recorded for CC(C)OP(=O)(OC(C)C)c1c(Nc2ccccc2)n[nH]c1N was > 100 µM

Note to self: TGI recorded for COC(=O)CC(C(C(=O)OC)C(=O)OC)N1C(=O)OCC1c1ccccc1 (configuration not stated) was > 100 µM
